Tested on: BT474 (human breast carcinoma)
Assay: In vitro tumor cell proliferation assay (Cell Titer-Glo luminescent cell viability), BT474
Assay type: cell-based
Details: BT-474, 72 h, BT474 cells, 72 hours of drug exposure, ATP luminescence readout, read-out: IC50, anti-proliferative activity (inhibition of cell proliferation)
pIC50: −log10 of the molar value. Where a name gives a salt, the structure may show the parent alone.
QUANTITY_MEASURED: pIC50

Worked cases, answers included:
Fc1ccc(Nc2ncnc3sc4c(c23)CCc2c-4cnn2CCNCCN2CCOCC2)cc1Cl :: ≥ 5.30
CCCn1ncc2c1CCc1c-2sc2ncnc(Nc3ccc(OCc4cccc(F)c4)c(Cl)c3)c12 [Example 131, trifluoroacetate] :: ≥ 6.00
COC[C@H]1CCCN1CCn1cc2c(n1)CCc1c-2sc2ncnc(Nc3ccc(F)c(Cl)c3)c12 :: ≥ 5.30
CN(C)CCNC(=O)Cn1ncc2c1CCc1c-2sc2ncnc(Nc3ccc(OCc4cccc(F)c4)c(Cl)c3)c12 :: ≥ 6.00
CN(C)C1CCN(CCn2cc3c(n2)CCc2c-3sc3ncnc(Nc4ccc(F)c(Cl)c4)c23)C1 (stereo not drawn) :: ≥ 6.00

Q) Give BT474 (human breast carcinoma) pIC50 for Fc1cccc(Cn2ncc3cc(Nc4ncnc5sc6c(c45)CCc4nn(CCN5CCNCC5)cc4-6)ccc32)c1
A) ≥ 6.00

Q) Give BT474 (human breast carcinoma) pIC50 for Fc1ccc(Nc2ncnc3sc4c(c23)CCc2nn(CCN3CCN(Cc5ccncc5)CC3)cc2-4)cc1Cl
A) ≥ 5.30

Q) Give BT474 (human breast carcinoma) pIC50 for O=C(Cn1ncc2c1CCc1c-2sc2ncnc(Nc3ccc(OCc4cccc(F)c4)c(Cl)c3)c12)NCCN1CCNCC1
A) ≥ 6.00

Q) Give BT474 (human breast carcinoma) pIC50 for COCCN1CCN(CCn2cc3c(n2)CCc2c-3sc3ncnc(Nc4ccc(F)c(Cl)c4)c23)CC1
A) ≥ 5.30

Q) Give BT474 (human breast carcinoma) pIC50 for CS(=O)(=O)CCNC(=O)Cn1cc2c(n1)CCc1c-2sc2ncnc(Nc3ccc(OCc4cccc(F)c4)c(Cl)c3)c12
A) ≥ 6.00

Q) Give BT474 (human breast carcinoma) pIC50 for COc1cccc(COc2ccc(Nc3ncnc4sc5c(c34)CCc3c-5cnn3CCN3CCN(C)CC3)cc2Cl)c1
A) ≥ 5.30

====

Listed here: items and their measured IC50.
Test system: BT474 (human breast carcinoma)
Assay: In vitro tumor cell proliferation assay (Cell Titer-Glo luminescent cell viability), BT474
Format: cell-based
Conditions: BT-474, 72 h, BT474 cells, 72 hours of drug exposure, ATP luminescence readout, read-out: IC50, anti-proliferative activity (inhibition of cell proliferation)
Where a name gives a salt, the structure may show the parent alone.

Worked cases, answers included:
CN1CCN(CCn2cc3c(n2)CCc2c-3sc3ncnc(Nc4ccc(OCc5cccc(C#N)c5)c(Cl)c4)c23)CC1 [Example 336] :: ≤ 1000 nM
Fc1ccc(Nc2ncnc3sc4c(c23)CCc2nn(CCN3CCCC3)cc2-4)cc1Cl [Example 9] :: ≤ 5000 nM

Q) May I ask what IC50 has been recorded for O[C@H](CN1CC[C@H](O)C1)Cn1cc2c(n1)CCc1c-2sc2ncnc(Nc3ccc(OCc4cccc(F)c4)c(Cl)c3)c12 [Example 150, trifluoroacetate] ?
A) ≤ 1000 nM

Q) May I ask what IC50 has been recorded for CS(=O)(=O)OCCn1cc2c(n1)CCc1c-2sc2ncnc(Nc3ccc4c(cnn4Cc4cccc(F)c4)c3)c12 [Example 276] ?
A) ≤ 1000 nM

Q) May I ask what IC50 has been recorded for CN1CCN(CCn2ncc3c2CCc2c-3sc3ncnc(Nc4ccc(OCc5cccc(F)c5)c(Cl)c4)c23)CC1 [Example 82] ?
A) ≤ 1000 nM

Q) May I ask what IC50 has been recorded for CS(=O)(=O)OCCn1ncc2c1CCc1c-2sc2ncnc(Nc3ccc(F)c(Cl)c3)c12 [Example 89] ?
A) ≤ 50000 nM

Q) May I ask what IC50 has been recorded for Fc1cccc(Cn2ncc3cc(Nc4ncnc5sc6c(c45)CCc4c-6cnn4CCn4ccnc4)ccc32)c1 [Example 291] ?
A) ≤ 1000 nM
